Where do these numbers come from? They come from ChEMBL document CHEMBL2375313.

Record form. Attribute: inhibition of growth at 10 µM. Fill in for each entry.
Test system: CCRF-CEM
Test: Cytotoxicity against human CCRF-CEM cells assessed as growth inhibition at 10 uM after 48 hrs by sulphorhodamine B assay
Type: functional
Details: read-out: GI
Give bare numbers, in %.

Task item: Fill in: inhibition of growth at 10 µM of COc1ccc(-c2c3c(nc4nc(C)[nH]c(=O)c24)C(C)CCC3)cc1 (stereo not given) is ___
Reply: 16.5

Give inhibition of growth at 10 µM for each listed item.
1. CC1CCCc2c1nc(N)c(C#N)c2-c1ccc(Cl)cc1 (stereo not given)
2. CC1CCCc2c1nc1nc(SCC(=O)c3ccccc3)nc(N)c1c2-c1ccc(Cl)cc1 (stereo not given)
3. CC1CCCc2c1nc1[nH]c(=S)n(-c3ccccc3)c(=N)c1c2-c1ccc(Cl)cc1 (stereo not given)

Reply:
13.3
60.1
20.7

The following molecules each have a reported value; give each one's inhibition of growth at 10 µM.
1. CC1CCCc2c1nc(NC(=S)NC(=O)c1ccccc1)c(C#N)c2-c1ccc(Cl)cc1 (stereo not given)
2. COc1ccc(-c2c3c(nc4ncnc(N)c24)C(C)CCC3)cc1 (stereo not given)
3. CCSc1nc(N)c2c(-c3ccc(OC)cc3)c3c(nc2n1)C(C)CCC3 (stereo not given)
4. COc1ccc(-c2c(C#N)c(N)nc3c2CCCC3C)cc1 (stereo not given)
5. CCSc1nc(N)c2c(-c3ccc(Cl)cc3)c3c(nc2n1)C(C)CCC3 (stereo not given)
6. CC1CCCc2c1nc1ncnc(N)c1c2-c1ccc(Cl)cc1 (stereo not given)
7. CC1CCCc2c1nc1[nH]c(=S)nc(N)c1c2-c1ccc(Cl)cc1 (stereo not given)

Reply:
1: 27.6; 2: 23; 3: 26.4; 4: 16.3; 5: 28.4; 6: 22.2; 7: 28.8

###

System: SK-MEL-2
Experiment: Cytotoxicity against human SK-MEL-2 cells assessed as growth inhibition at 10 uM after 48 hrs by sulphorhodamine B assay
Type: functional
Conditions: SK-MEL-2, 48 h, read-out: GI
RECORDED ENDPOINT: inhibition of growth at 10 µM (%)
Answers are plain numbers, in %.

Task item: # lookup: inhibition of growth at 10 µM of CC1CCCc2c1nc1[nH]c(=S)n(-c3ccccc3)c(=N)c1c2-c1ccc(Cl)cc1 (stereo not given)
Reply: 11.3

Would you kindly look at the next entry?
Task item: Look up inhibition of growth at 10 µM for this compound: CC1CCCc2c1nc1[nH]c(=S)nc(N)c1c2-c1ccc(Cl)cc1 (stereo not given)
Reply: 11.4

###

Record form. Attribute: inhibition of growth at 10 µM. Fill in for each entry.
Tested on: HCT-116
Test: Cytotoxicity against human HCT116 cells assessed as growth inhibition at 10 uM after 48 hrs by sulphorhodamine B assay
Assay type: functional
Details: HCT-116, 48 h, read-out: GI
Answers are plain numbers, in %.

Recorded results for 5 compounds are shown here.
Task item: Report inhibition of growth at 10 µM for CCSc1nc(N)c2c(-c3ccc(OC)cc3)c3c(nc2n1)C(C)CCC3 (stereo not given) please.
Reply: 20

Task item: So what's the measured inhibition of growth at 10 µM for this one? CC1CCCc2c1nc1[nH]c(=S)n(-c3ccccc3)c(=N)c1c2-c1ccc(Cl)cc1 (stereo not given)
Reply: 34

Task item: Could you tell me which inhibition of growth at 10 µM is on file for CC1CCCc2c1nc1nc(SCC(=O)c3ccccc3)nc(N)c1c2-c1ccc(Cl)cc1 (stereo not given) ?
Reply: 38.4

Task item: Request the reported inhibition of growth at 10 µM associated with COc1ccc(-c2c3c(nc4ncn(N)c(=N)c24)C(C)CCC3)cc1 (stereo not given)
Reply: 22.3

Task item: inhibition of growth at 10 µM lookup needed for CC1CCCc2c1nc1[nH]c(=O)nc(N)c1c2-c1ccc(Cl)cc1 (stereo not given) , thanks.
Reply: 14

Dear colleague, could you please provide inhibition of growth at 10 µM for the compounds listed below?
1. COc1ccc(-c2c(C#N)c(N)nc3c2CCCC3C)cc1 (stereo not given)
2. CCSc1nc(N)c2c(-c3ccc(Cl)cc3)c3c(nc2n1)C(C)CCC3 (stereo not given)
3. CC1CCCc2c1nc1ncnc(N)c1c2-c1ccc(Cl)cc1 (stereo not given)
4. COc1ccc(-c2c3c(nc4ncnc(N)c24)C(C)CCC3)cc1 (stereo not given)
5. CC1CCCc2c1nc(NC(=S)NC(=O)c1ccccc1)c(C#N)c2-c1ccc(Cl)cc1 (stereo not given)

Reply:
15.7
18.8
14
14.2
20

Task item: Suppose we examine the compound CC1CCCc2c1nc1[nH]c(=S)nc(N)c1c2-c1ccc(Cl)cc1 (stereo not given) ; what inhibition of growth at 10 µM value has been reported?
Reply: 10.5
